System: SK-MEL-2 melanoma
Experiment: NCI-60 one-dose screen, 48 h
Details: 10 µM unless noted
Compounds without any hit were thinned out: in the full panel of roughly 83,000, 20% have a hit. Activity calls are given as the source filed them. How the source made its calls: active means growth percent below 10; inactive means the rest.
One label from this list, please: active, inactive

Record excerpt, results attached:
>>> print(df.to_string())
                                   molecule  assigned_label
0  COC(=O)c1c2c(c(C)[n+]([O-])c1C)C(=O)C=C(NCc1ccc(Br)cc1)C2=O          active
1  COC(=O)CNC(=O)[C@H](Cc1ccccc1)NCc1ccncc1        inactive

input: Test call for this molecule, please: CCCCNC(=O)Oc1ccc(/C(=C(/CC)Cc2ccccc2)c2ccc(OCCN3CCCCCC3)cc2)cc1
output: inactive

input: Test call for this molecule, please: Cc1cnc(C(=O)NNc2nc3sc4c(c3c(=O)n2C)C(C)CCC4)cn1 (stereo not given)
output: active

input: Test call for this molecule, please: COCCn1c(-c2csc(-c3cn(C)c4ccc(OC)cc34)n2)cc2cccnc21
output: inactive

input: Test call for this molecule, please: O=C1/C(=C\c2cn(-c3ccccc3)nc2-c2ccc(-c3cccs3)cc2)CCc2ccccc21
output: inactive

input: Test call for this molecule, please: C=C1CC[C@@H]2[C@](C)(COC(C)=O)[C@H](OC(C)=O)CC[C@@]2(C)[C@@H]1CC(Sc1ccccc1)C1=CCOC1=O (stereo not given in full)
output: active

input: Test call for this molecule, please: CCc1ccc(C(=O)/C=C/C23c4ccccc4C(c4ccccc42)C2C(=O)NC(=O)C23)cc1 (stereo not given)
output: active

input: Test call for this molecule, please: N#Cc1nn(-c2cc(=O)[nH]c3ccc(Cl)cc23)c(N)c1C#N
output: inactive

input: Test call for this molecule, please: Cn1cc(-c2nonc2-c2c[nH]c3ccc(Br)cc23)c2cc(Br)ccc21
output: inactive
